# credit: patent US20240382677A1

Target Or System: full length human PD-1 on HEK293/hPD-1 cells (human)
Protocol Details: FACS dose response, HEK293/hPD-1 cells
Result Type: EC50 (nM)
Entry rule: numbers only, all in nM.

-- ask Any idea what EC50 was measured for H2aM7780N (antibody, mouse IgG2a, V domains shown) VH: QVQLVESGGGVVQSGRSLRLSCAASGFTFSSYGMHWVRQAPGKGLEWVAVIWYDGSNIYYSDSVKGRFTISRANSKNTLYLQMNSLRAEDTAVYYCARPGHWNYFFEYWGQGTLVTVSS VL: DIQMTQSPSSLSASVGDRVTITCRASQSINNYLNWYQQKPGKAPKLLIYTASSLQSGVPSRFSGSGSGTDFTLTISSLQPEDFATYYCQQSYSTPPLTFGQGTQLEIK ?
-- reply 1.69
